Tested on: HeLa
Test: Primary qHTS to identify gynecologic anti-cancer compounds using libraries of approved drugs and bioactive compounds (AID 1345084); further: nearly all actives have a fitted effect of over 55% in size
Settings: Gynecologic cancer cell panel viability, ATPlite luminescence, 48 h; series mostly up to 57.5 µM
Records with an inconclusive call do not appear. Activity calls are given as the source filed them. The call rests on the fitted dose curve; in most records, active means well fitted cell-killing curve with a large enough effect; inconclusive means small, poorly fitted or top-dose-only effect, or effect the other way; inactive means flat fitted curve, though single readings scatter.
Allowed answers: active, inactive

Worked cases, answers included:
CN(C)CCc1c[nH]c2cccc(OP(=O)(O)O)c12: inactive
CC(C)=CC1C(C(=O)OCN2C(=O)C3=C(CCCC3)C2=O)C1(C)C (stereo unspecified): inactive
O=C(O)c1ccc(=O)[nH]c1: inactive
CN1C(=O)CCS(=O)(=O)C1c1ccc(Cl)cc1 (stereo unspecified): inactive
COP(=S)(OC)SCN1C(=O)c2ccccc2C1=O: inactive
NC(=O)c1cc([N+](=O)[O-])cc([N+](=O)[O-])c1: inactive
c1ccc2c(c1)sc1ccccc12: inactive
CCC1(CC)C(=O)C=CNC1=O: inactive
CNCC(=O)c1ccc(O)c(O)c1: inactive
COP(=S)(OC)Oc1ccc(SC)c(C)c1: inactive

# input Could you kindly confirm the outcome this assay logged for `O=c1[nH]oc2c1CCNC2` ?
# output inactive

# input Now the same for `C[C@]12CC[C@H]3[C@@H](CCC4=CC(=O)CC[C@@H]43)[C@@H]1CC[C@@H]2OC(=O)CCC1CCCCC1`
# output active

# input `CC(C)(N)Cc1ccccc1Cl` , same question.
# output inactive

# input One more compound: `C[C@@H]1CC2=CC(=O)CC[C@@H]2[C@H]2CC[C@@]3(C)[C@@H](CC[C@]3(C)O)[C@@H]21`
# output inactive

# input Thanks! And `COc1ccc2c(c1OC)C(=O)O[C@H]2[C@@H]1c2cc3c(cc2CCN1C)OCO3` ?
# output inactive

* * *

Reported max response by item:
Tested on: CRL-7250
Assay: Cytotoxic Profiling of Annotated Libraries Using Quantitative High-Throughput Screening (AID 1296008); further: on the % scale 0 is the no-effect control and ±100 the full control effect; nearly all actives have a fitted effect of over 60% in size
Conditions: Five cell lines viability, CellTiter-Glo ATP luminescence, 48-72 h; stronger effect = lower value
Inconclusive results are not listed.
Report only the number, with the unit % understood.

O=C1c2ccccc2C(=O)c2ccccc21: -3.19
CCN(CCO)CCn1c(Cc2ccccc2)nc2c1c(=O)n(C)c(=O)n2C: -2.16
CN1C(=O)NC(=O)C(C)(C2=CCCCC2)C1=O (centres undefined): -9.98
C=CCN1C[C@H](C)N([C@H](c2ccc(C(=O)N(CC)CC)cc2)c2cccc(OC)c2)C[C@H]1C: 0.0318
CN1CC[C@]23c4c5ccc(O)c4O[C@H]2[C@@H](O)C=C[C@H]3[C@H]1C5: -11.3
CC(C)C[C@H](CN)CC(=O)O: -0.456

# input Dear colleague, I am looking for the recorded max response of the following molecule: `O=[N+]([O-])O[C@H]1CO[C@H]2[C@@H]1OC[C@H]2O[N+](=O)[O-]`
# output -11.3

# input // repeat for O=C1OC(CCN2CCCCC2)OC1(c1ccccc1)c1ccccc1 (centres undefined) and report
# output -20

# input What do we get for `CCN[C@@H](C)Cc1ccccc1` ?
# output -24.3

# input How about this molecule: `O=C1OC(c2ccc(O)c(S(=O)(=O)O)c2)(c2ccc(O)c(S(=O)(=O)O)c2)c2c(Br)c(Br)c(Br)c(Br)c21`
# output -1.01

# input Try this molecule next: `Clc1cccc(SC2CCNCC2)n1`
# output -0.448

# input Again, but for `c1ccc2c(c1)sc1ccccc12`
# output 2.83

# input Please answer likewise for `c1ccc(N2CCNCC2)cc1`
# output 4.63

# input Consider next the molecule CC1(C)C(C=C(Cl)Cl)C1C(=O)OC(C#N)c1cccc(Oc2ccccc2)c1 (centres undefined) in the same way.
# output 2.32

# input Try the molecule C#CC(O)(C=CCl)CC (centres undefined)
# output -0.331

# input Another molecule: CN1CCC(O)(c2ccc(F)cc2)C(C(=O)c2ccc(F)cc2)C1 (centres undefined)
# output -1.09

# input Here is the next molecule: `C#C[C@]1(O)CC[C@H]2[C@@H]3CCC4=CC(=O)CC[C@]4(C)[C@H]3CC[C@@]21C`
# output -4.49

# input Item: `CC(C)NC(C)C`
# output 1.83

# input Follow-up entry: CCC(C)C(C)(COC(N)=O)COC(N)=O (centres undefined)
# output 1.47

# input Would you kindly repeat that for O=c1c(C2CC(c3ccc(-c4ccc(Br)cc4)cc3)Cc3ccccc32)c(O)sc2ccccc12 (centres undefined) ?
# output 0.288

# input And `Oc1ccc(Cl)cc1` ?
# output -6.01

# input Try the molecule `C[C@]12Cc3cn[nH]c3C[C@@H]1CC[C@@H]1[C@@H]2CC[C@@]2(C)[C@H]1CC[C@]2(C)O`
# output 0.607

# input Next record, please: CC(C)N(CCC(C(N)=O)(c1ccccc1)c1ccccn1)C(C)C (centres undefined)
# output -4.51

# input Also `COP(=S)(OC)Oc1ccc(S(=O)(=O)N(C)C)cc1` ?
# output 4.64

* * *

Tested on: Tov-21-G
Assay: Primary qHTS to identify gynecologic anti-cancer compounds using libraries of approved drugs and bioactive compounds (AID 1345084); further: nearly all actives have a fitted effect of over 55% in size
Conditions: Gynecologic cancer cell panel viability, ATPlite luminescence, 48 h; series mostly up to 57.5 µM
Records with an inconclusive call do not appear. The source made the active and inactive calls. The call rests on the fitted dose curve; in most records, active means well fitted cell-killing curve with a large enough effect; inconclusive means small, poorly fitted or top-dose-only effect, or effect the other way; inactive means flat fitted curve, though single readings scatter.
measured.parameter: outcome

Some molecules with known outcome results, for comparison:
COP(=S)(OC)SCN1C(=O)c2ccccc2C1=O: inactive
COc1c2c(cc3c1OCO3)CCN(C)C2: inactive
CCC(CC)(CNC(=O)CCCO)c1cccc(OC)c1: inactive
Clc1ccccc1N1CCNCC1: inactive
NC(=O)CS(=O)C(c1ccccc1)c1ccccc1 (stereo unspecified): inactive
C[C@]12CCC(=O)C=C1CC[C@@H]1[C@@H]2CC[C@@]2(C)[C@H]1CC[C@]2(C)O: inactive

# input // returns reported outcome for input `C#C[C@]1(O)CC[C@H]2[C@@H]3CCC4=CC(=O)CC[C@]4(C)[C@H]3CC[C@@]21C`
# output inactive

# input Now the same for `CNCC(=O)c1ccc(O)c(O)c1`
# output inactive

# input Thanks! And `O=c1oc2ccccc2c(O)c1Cc1c(O)c2ccccc2oc1=O` ?
# output inactive

* * *

Conditions: Ebola virus entry assay, reporter ratio channel; Channel type: primary
Active and inactive are the calls of the source. How the calls were made is not given here.
Listing: AC50 of selected molecules

Completed entries (count: 6):
CC(C)(C)CC(C)(C)c1ccc(OCCOCC[N+](C)(C)Cc2ccccc2)cc1: 2.51 µM (active)
COc1cccc2c1C(=O)c1c(O)c3c(c(O)c1C2=O)C[C@@](O)(C(=O)CO)CC3OC1CC(N2CCOC(OC)C2)C(O)C(C)O1 (stereo partly specified): 31.6 µM (active)
CO[C@]12C[C@@H](COC(=O)c3cncc(Br)c3)CN(C)[C@@H]1Cc1cn(C)c3cccc2c13: 20 µM (active)
CN1CC[C@]23c4c5ccc(O)c4O[C@H]2[C@@H](O)C=C[C@H]3[C@H]1C5: 35.5 µM (active)
C#C[C@]1(O)CC[C@H]2[C@@H]3CCc4cc(OC5CCCC5)ccc4[C@H]3CC[C@@]21C: 5.01 µM (active)
CC(CN(C)C)C(C)(O)Cc1ccc(Cl)cc1 (stereo unspecified): 28.2 µM (active)

# input Suppose we examine the molecule `CN(C)[C@@H]1C(=O)C(C(N)=O)=C(O)[C@@]2(O)C(=O)C3=C(O)c4c(O)cccc4C[C@H]3C[C@@H]12` ; what AC50 value has been reported?
# output 17.8 µM (active)

# input Next up: `CCCC(=O)c1cc(O)c(O)cc1O`
# output 10 µM (active)

# input What about this molecule? `CCN[C@H](C)Cc1cccc(C(F)(F)F)c1`
# output 31.6 µM (active)

# input Next record, please: `Cc1cccc(C)c1OCC(=O)N[C@@H](Cc1ccccc1)[C@@H](O)C[C@H](Cc1ccccc1)NC(=O)[C@H](C(C)C)N1CCCNC1=O`
# output 39.8 µM (active)

# input Repeat with CC(C)(C)NCC(O)COc1ccc(NC(=O)NC2CCCCC2)cc1 (stereo unspecified)
# output 39.8 µM (active)

* * *

Conditions: Ebola virus entry assay, reporter ratio channel; Channel type: primary unless noted
Active and inactive are the calls of the source. The rule behind the calls is not given here.
measured.parameter: outcome

NCCCC[C@H](N[C@@H](CCc1ccccc1)C(=O)O)C(=O)N1CCC[C@H]1C(=O)O: inactive
O=C(O)Cn1cnnn1: inactive
CC(C)[N+](C)(C)CC(O)COc1cccc2ccccc12 (stereo unspecified): inactive
O=c1[nH]c(=O)n([C@H]2C[C@H](O)[C@@H](CO)O2)cc1I: inactive
Oc1ccc(Cl)cc1: inactive
CN(C)CCN(Cc1ccsc1)c1ccccn1: inactive
Cc1ccccc1C(=O)Nc1ccc(C(=O)N2CCCC(N(C)C)c3ccccc32)cc1 (stereo unspecified): inactive
c1ccc2c(c1)CCCC2C1=NCCN1 (stereo unspecified): inactive
CC(C)(Oc1ccc(C2CC2(Cl)Cl)cc1)C(=O)O (stereo unspecified): inactive
COc1cc(C(=O)NS(=O)(=O)c2ccccc2C)ccc1Cc1cn(C)c2ccc(NC(=O)OC3CCCC3)cc12: inactive

# input # outcome lookup, item `O=C1CC2(CCCC2)CC(=O)N1`
# output inactive

# input Also, `CC(C)NC(C)C` please.
# output inactive

# input Next entry: NC1=NC(=O)C(c2ccccc2)O1 (stereo unspecified)
# output inactive

# input How about this compound: `CCN(CC)S(=O)(=O)c1ccc(C(=O)O)cc1`
# output inactive

# input One more compound: `CO[C@@]1(NC(=O)CSC[C@@H](N)C(=O)O)C(=O)N2C(C(=O)O)=C(CSc3nnnn3C)CS[C@@H]21`
# output inactive

# input // query: `COCCCN1CCC(NC(=O)c2cc(Cl)c(N)c3c2OCC3)CC1`
# output inactive

# input Moving on to `Cc1cc(=O)oc2cc(O[C@@H]3SC[C@@H](O)[C@H](O)[C@H]3O)ccc12`
# output inactive

# input Try the compound `CC(=O)CC/C=C(\C)CC/C=C(\C)CC/C=C(\C)CCC=C(C)C`
# output inactive

# input Then this compound: `C[C@@H]1O[C@@H](OC[C@H]2O[C@@H](Oc3c(-c4ccc(O)c(O)c4)oc4cc(O)cc(O)c4c3=O)[C@H](O)[C@@H](O)[C@@H]2O)[C@H](O)[C@H](O)[C@H]1O`
# output inactive

# input Lookup `O=c1c(-c2ccc(O)cc2)coc2cc(O)cc(O)c12`
# output inactive
